# test-summary: Solubility of the compound in phosphate buffered saline at pH 7.4 after 2 hrs by turbidimetric analysis
# Format: physicochemical

{"columns": ["compound", "solubility kinetic at 2 h"],
 "data": [
  ["COc1ccc(C(SC[C@H](N)C(=O)O)(c2ccccc2)c2ccccc2)cc1", "> 100 µM"],
  ["Cc1ccc(C(CCC(N)C(=O)O)(c2ccccc2)c2ccccc2)cc1C (racemic)", "> 100 µM"],
  ["CCc1cc(C(SC[C@H](N)C(=O)O)(c2ccccc2)c2ccccc2)ccc1C", "65 µM"],
  ["Cc1ccc(C(=O)N(CCCN)[C@@H](c2oc3cc(Cl)ccc3c(=O)c2Cc2ccccc2)C(C)C)cc1", "> 100 µM"],
  ["Cc1ccc(C(SC[C@H](N)C(=O)O)(c2ccccc2)c2ccccc2)cc1C", "65 µM"],
  ["COc1ccc(C(CCCN)(c2ccccc2)c2ccccc2)cc1", "> 30 µM"]
]}

###

# test-summary: Volume of distribution in mouse at 5 mg/kg, iv by LC-MS/MS analysis
# Format: ADME, organism-based
# Design: dose 5 mg/kg, route intravenous
# condition-info: in vivo

{"columns": ["compound", "Vd [L/kg]"],
 "data": [
  ["Cc1cccc(C(CCCN)(c2ccccc2)c2ccccc2)c1", 6.9],
  ["Cc1cccc(C(CCC(N)C(=O)O)(c2ccccc2)c2ccccc2)c1 (racemic)", 0.6],
  ["Cc1ccc(C(=O)N(CCCN)[C@@H](c2nc3cc(Cl)ccc3c(=O)n2Cc2ccccc2)C(C)C)cc1", 2.5]
]}

###

# target-system: Cytochrome P450 3A4 (Homo sapiens, UniProt P08684)
# Sequence (P08684 whole entry): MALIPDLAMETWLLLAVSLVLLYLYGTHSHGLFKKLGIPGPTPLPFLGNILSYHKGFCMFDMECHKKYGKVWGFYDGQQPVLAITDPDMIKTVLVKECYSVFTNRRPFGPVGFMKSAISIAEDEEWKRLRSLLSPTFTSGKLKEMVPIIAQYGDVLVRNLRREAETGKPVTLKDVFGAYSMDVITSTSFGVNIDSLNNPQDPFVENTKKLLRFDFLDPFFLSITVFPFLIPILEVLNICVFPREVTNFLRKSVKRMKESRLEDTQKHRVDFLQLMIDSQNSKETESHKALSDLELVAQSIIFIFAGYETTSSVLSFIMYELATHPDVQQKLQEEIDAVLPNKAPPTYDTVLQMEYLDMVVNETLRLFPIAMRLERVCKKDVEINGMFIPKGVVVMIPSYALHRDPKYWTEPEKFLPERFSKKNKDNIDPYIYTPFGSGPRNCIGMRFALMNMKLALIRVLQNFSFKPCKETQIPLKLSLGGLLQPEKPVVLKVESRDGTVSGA
# test-summary: Inhibition of CYP3A4 (unknown origin) by LC-MS/MS analysis
# Type: ADME

{"columns": ["molecule", "target-system", "INH"],
 "data": [
  ["COc1ccc(C(SC[C@H](N)C(=O)O)(c2ccccc2)c2ccccc2)cc1", "Cytochrome P450 3A4 (Homo sapiens, UniProt P08684)", "> 25 µM"],
  ["COc1ccc(C(CCCN)(c2ccccc2)c2ccccc2)cc1", "Cytochrome P450 3A4 (Homo sapiens, UniProt P08684)", "7.3 µM"],
  ["Cc1ccc(C(SC[C@H](N)C(=O)O)(c2ccccc2)c2ccccc2)cc1C", "Cytochrome P450 3A4 (Homo sapiens, UniProt P08684)", "> 25 µM"],
  ["CCc1cc(C(SC[C@H](N)C(=O)O)(c2ccccc2)c2ccccc2)ccc1C", "Cytochrome P450 3A4 (Homo sapiens, UniProt P08684)", "> 25 µM"],
  ["Cc1ccc(C(CCC(N)C(=O)O)(c2ccccc2)c2ccccc2)cc1C (racemic)", "Cytochrome P450 3A4 (Homo sapiens, UniProt P08684)", "> 25 µM"]
]}

###

In this section we review reported AUC(0-t) values for a set of compounds.
# test-summary: AUClast in mouse at 5 mg/kg, iv by LC-MS/MS analysis
# Type: ADME, organism-based, Plasma
# Design: time 0 - last, dose 5 mg/kg, route intravenous
# condition-info: plasma

{"columns": ["compound", "AUC(0-t), ng·h/mL"],
 "data": [
  ["Cc1ccc(C(=O)N(CCCN)[C@@H](c2nc3cc(Cl)ccc3c(=O)n2Cc2ccccc2)C(C)C)cc1 [ISPINESIB]", 3100],
  ["Cc1cccc(C(CCCN)(c2ccccc2)c2ccccc2)c1", 300],
  ["Cc1cccc(C(CCC(N)C(=O)O)(c2ccccc2)c2ccccc2)c1 (racemic)", 13100]
]}
